- EXPERIMENTAL_TARGET: FLNA pentapeptide of SEQ ID NO: 1 (Bn-VAKGL) (Homo sapiens, UniProt P21333)
- TEST_NAME: FITC-NLX-based FLNA screening assay (inhibition of FITC-naloxone binding to Bn-VAKGL on streptavidin plates)
- ASSAY_CONTEXT: read-out: Percent Binding Inhibition, FLNA-binding compound 1 μM; 10 nM FITC-NLX
# cutoff 50% applies to inhibition at 1 µM; >= gives yes (1), < gives no (0)

1) CC1CCC(C(C)C)C(OCC(O)CN2CCC(=O)C(C)C2)C1 (stereo not shown) [Compound A0056] = no (0)
2) Cc1ccccc1S(=O)(=O)N1CCC2(CC1)OCCN2S(=O)(=O)c1ccccc1C [Compound C0015] = no (0)
3) CN1CCC2(CC1)OCCN2S(=O)(=O)c1ccc(S(C)(=O)=O)cc1 [Compound C0106M] = yes (1)
4) O=S(=O)(c1ccc(-c2ccccc2)cc1)N1CCC2(CC1)OCCN2S(=O)(=O)c1ccc(-c2ccccc2)cc1 [Compound C0010] = no (0)
5) COc1cccc(OC)c1C(=O)CC1c2c(cc3c(c2OC)OCO3)CC[N+]1(C)C (stereo not shown) [Compound B0023] = no (0)
6) CC1CCC(C(C)C)C(OCC(O)CN2CCCc3ccccc32)C1 (stereo not shown) [Compound A0068] = yes (1)

Is reported inhibition at 1 µM greater than or equal to 50% here: COc1cccc(CCC(=O)CC2c3c(cc4c(c3OC)OCO4)CC[N+]2(C)C)c1 (stereo not shown) [Compound B0034]
yes (1)

Is reported inhibition at 1 µM greater than or equal to 50% here: CS(=O)(=O)c1ccc(S(=O)(=O)N2CCC3(CC2)OCCN3S(=O)(=O)c2ccc(S(C)(=O)=O)cc2)cc1 [Compound C0009]
yes (1)

Is reported inhibition at 1 µM greater than or equal to 50% here: CC1CCC(C(C)C)C(OCC(O)CN2CCSCC2)C1 (stereo not shown) [Compound A0003]
no (0)

Is reported inhibition at 1 µM greater than or equal to 50% here: O=S(=O)(c1csc2ccccc12)N1CCC2(CC1)OCCN2S(=O)(=O)c1csc2ccccc12 [Compound C0150M]
yes (1)

Is reported inhibition at 1 µM greater than or equal to 50% here: CCc1ccc(S(=O)(=O)N2CCOC23CCN(CC2CC2)CC3)cc1 [Compound C0135M]
yes (1)

Is reported inhibition at 1 µM greater than or equal to 50% here: N#Cc1ccccc1S(=O)(=O)N1CCC2(CC1)OCCN2S(=O)(=O)c1ccccc1C#N [Compound C0004]
no (0)

Is reported inhibition at 1 µM greater than or equal to 50% here: COc1ccc(CCC(O)CC2c3c(cc4c(c3OC)OCO4)CC[N+]2(C)C)cc1 (stereo not shown) [Compound B0049]
no (0)

* * *

- System: mu opiate receptor (MOR)
- TEST_NAME: MOR agonist activity using [35S]GTPγS binding assay in striatal membranes
- Type: biochemical
- ASSAY_CONTEXT: Series C-2; 1 μM compound + β-FNA, relative to DAMGO + BFNA
ENDPOINT: % DAMGO + BFNA (%)
Please state the figure in %; there is no need to write the unit.

Recorded results for 3 molecules are shown here.
1. CCCCN1CCC2(CC1)OCCN2S(=O)(=O)c1ccc(OC)cc1 [Compound C0102M] = 316.6
2. CC(=O)c1ccc(S(=O)(=O)N2CCC3(CC2)NC(=O)CO3)cc1 [Compound C0087M] = 293.8
3. COc1ccc(NC(=O)N2CCC3(CC2)NCCO3)cc1 [Compound C0151M-2] = 233.1

Hello, please tell me recorded % DAMGO + BFNA for this one: COc1ccc(S(=O)(=O)N2CCOC23CCN(C(=O)OC(C)(C)C)CC3)cc1 [Compound C0043]
501.8

Hello, please tell me recorded % DAMGO + BFNA for this one: C=CCN1CCC2(CC1)OCCN2S(=O)(=O)c1ccc(C(C)=O)cc1 [Compound C0096M]
577.7

Hello, please tell me recorded % DAMGO + BFNA for this one: COc1ccc(S(=O)(=O)N2CCOC23CCNCC3)cc1 [Compound C0027]
164.5

Hello, please tell me recorded % DAMGO + BFNA for this one: CC(=O)c1ccc(S(=O)(=O)N2CC(CN(C)C)OC23CCN(C)CC3)cc1 (stereo not drawn) [Compound C0108M]
158.6

Hello, please tell me recorded % DAMGO + BFNA for this one: CC(=O)c1ccc(S(=O)(=O)N2CCC3(CC2)OCCN3S(C)(=O)=O)cc1 [Compound C0056]
196.1

Hello, please tell me recorded % DAMGO + BFNA for this one: O=C1CN(Cc2ccccc2)C2(CCN(C3CCCCC3)CC2)N1 [C0137M(P7)]
115.1

* * *

Documented inhibition at 0.1 µM across a set of compounds
- EXPERIMENTAL_TARGET: FLNA pentapeptide of SEQ ID NO: 1 (Bn-VAKGL) (Homo sapiens)
- TEST_NAME: FITC-NLX-based FLNA screening assay (inhibition of FITC-naloxone binding to Bn-VAKGL on streptavidin plates)
- ASSAY_CONTEXT: FLNA-binding compound 0.1 μM; 10 nM FITC-NLX; read-out: Percent Binding Inhibition
Please state the figure in %; there is no need to write the unit.

Recorded results for 5 compounds are shown here.
1. CCCCN1CCC2(CC1)OCCN2S(=O)(=O)c1ccc(OC)cc1 [Compound C0102M] = 53.1
2. COc1ccc(S(=O)(=O)N2CCSC23CCNCC3)cc1 = 46.5
3. N#Cc1ccc(S(=O)(=O)N2CCC3(CC2)OCCN3S(=O)(=O)c2ccc(C#N)cc2)cc1 = 52.3
4. CC1CCCC(OCC(O)CN2CC(C)OC(C)C2)C1 (stereo not drawn) = 43.4
5. COc1c2c(cc3c1C(CC(=O)CCc1ccccc1)N(C)CC3)OCO2 (stereo not drawn) = 34.5

Hello, please tell me recorded inhibition at 0.1 µM for this one: CC1CCC(C(C)C)C(OCC(O)CN2CCN(CCc3ccccc3)CC2)C1 (stereo not drawn)
38.8

Hello, please tell me recorded inhibition at 0.1 µM for this one: CCN1CCC2(CC1)OCCN2S(=O)(=O)c1ccc(C(C)=O)cc1 [Compound C0094M]
52.8

Hello, please tell me recorded inhibition at 0.1 µM for this one: COc1ccc(S(=O)(=O)N2CCOC23CCN(C(=O)OC(C)(C)C)CC3)cc1
51.3

Hello, please tell me recorded inhibition at 0.1 µM for this one: C=CCN1CCC2(CC1)OCCN2S(=O)(=O)c1ccc(C(C)=O)cc1 [Compound C0096M]
48.3

Hello, please tell me recorded inhibition at 0.1 µM for this one: CCOC(=O)CN1CCC2(CC1)OCCN2S(=O)(=O)c1ccc(C(C)=O)cc1 [Compound C0099M]
53.3

Hello, please tell me recorded inhibition at 0.1 µM for this one: COc1ccc(OCC(O)CN2CCOc3ccccc32)cc1 (stereo not drawn)
40

Hello, please tell me recorded inhibition at 0.1 µM for this one: CN1CCC2(CC1)NC(=O)CN2Cc1ccccc1 [Compound C0104M]
54.1

* * *

- EXPERIMENTAL_TARGET: FLNA pentapeptide of SEQ ID NO: 1 (Bn-VAKGL) (Homo sapiens)
- TEST_NAME: FITC-NLX-based FLNA screening assay (inhibition of FITC-naloxone binding to Bn-VAKGL on streptavidin plates)
- ASSAY_CONTEXT: read-out: Percent Binding Inhibition, FLNA-binding compound 1 μM; 10 nM FITC-NLX
Documented inhibition at 1 µM across a set of compounds
Please state the figure in %; there is no need to write the unit.

Recorded results for 8 compounds are shown here.
1) COc1ccc(C(=O)CC2c3c(cc4c(c3OC)OCO4)CC[N+]2(C)C)c(F)c1 (stereo not shown) = 49.8
2) CC(=O)c1ccc(S(=O)(=O)N2CC(=O)NC23CCNCC3)cc1 [Compound C0086M] = 53.4
3) CC(=O)c1ccc(S(=O)(=O)N2CCC3(CC2)NC(=O)C(Cc2cnc[nH]2)N3S(=O)(=O)c2ccc(C(C)=O)cc2)cc1 (stereo not shown) [Compound C0084M] = 55.9
4) CC(=O)c1ccc(S(=O)(=O)N2CC(CN(C)C)OC23CCN(C)CC3)cc1 (stereo not shown) [Compound C0108M] = 68.7
5) CC(=O)c1ccc(S(=O)(=O)N2CCOC23CCN(C)CC3)cc1 [Compound C0093M] = 53.5
6) COc1cc(C(=O)CC2c3c(cc4c(c3OC)OCO4)CC[N+]2(C)C)cc(OC)c1OC (stereo not shown) = 52.4
7) O=S(=O)(c1ccc(C(F)(F)F)cc1Br)N1CCC2(CC1)OCCN2S(=O)(=O)c1ccc(C(F)(F)F)cc1Br = 55.2
8) COc1cc(OC)cc(C(=O)CC2c3c(cc4c(c3OC)OCO4)CC[N+]2(C)C)c1 (stereo not shown) = 51

Hello, please tell me recorded inhibition at 1 µM for this one: COc1ccc(N2CCN(CC(O)COC3CC(C)CCC3C(C)C)CC2)c(OC)c1 (stereo not shown)
54.4

Hello, please tell me recorded inhibition at 1 µM for this one: O=S(=O)(c1ccc(Br)cc1C(F)(F)F)N1CCC2(CC1)OCCN2S(=O)(=O)c1ccc(Br)cc1C(F)(F)F
62.2

Hello, please tell me recorded inhibition at 1 µM for this one: O=S(=O)(c1cccs1)N1CCC2(CC1)OCCN2S(=O)(=O)c1cccs1 [Compound C0141M]
46.9
